The values you see were collected from patent US20180000085A1.

# Tested on: Puccinia triticina
# Measurement Protocol: Wheat brown rust (PUCCRT) disease control on wheat seedlings
# Format: in vivo
# Condition Details: HV application, 100 ppm, 3 Day Curative, wheat brown rust
Parameter: HV activity at 100 ppm PUCCRT 3DC (disease control rating)

See these solved cases before continuing.
* COc1ccnc(C(=O)N[C@@H](C)C(=O)O[C@@H](C)[C@@H](CC(C)C)OCC(C)C)c1O [Cmpd 1044] | A (> 80)
* COc1ccnc(C(=O)N[C@@H](C)C(=O)O[C@@H](C)[C@@H](CC(C)C)Oc2ccc(Cl)cc2)c1O [Cmpd 1047] | A (> 80)
* COc1ccnc(C(=O)N[C@@H](C)C(=O)O[C@@H](C)[C@@H](CC(C)C)Oc2cccc(F)c2)c1O [Cmpd 1048] | A (> 80)
* COc1ccnc(C(=O)N[C@@H](C)C(=O)O[C@@H](C)[C@@H](CC(C)C)Oc2cccc(Cl)c2)c1O [Cmpd 1050] | A (> 80)
* COc1ccnc(C(=O)NC(C)C(=O)OC(C(C)C)C(Oc2ccccc2)C(C)C)c1O (stereo not drawn) [Cmpd 1031] | D

Proceed to the following item.
Quick one: HV activity at 100 ppm PUCCRT 3DC (disease control rating) of CCOc1ccnc(C(=O)N[C@@H](C)C(=O)O[C@@H](C)[C@@H](CC(C)C)Oc2cccc(F)c2)c1O [Cmpd 1039] ? A (> 80)
